FYI, the data here is from patent US9326513B2.

Listed here are compounds together with their documented inhibition at 0.0078125 ppm.
# System: Botrytis cinerea
# assayRemarks: Botrytis cinerea (gray mould), PDB microtiter plate, visual after 72 hrs
# Type: cell-based
# conditionDetails: Botrytis cinerea, alone, rate 0.0078125 ppm

Examples with their reported inhibition at 0.0078125 ppm follow.
INSERT INTO measurements (compound, resultvalue) VALUES
  ('CON(C(=O)c1cn(C)nc1C(F)F)C(C)Cc1c(Cl)cc(Cl)cc1Cl (stereo not shown) [(VI), reference compound]', '20%'),
  ('CCN(C)/C=N/c1cc(Br)c(OC2Cc3ccccc3C2)nc1C', '0%'),
  ('CCN(C)/C=N/c1cc(Br)c(O[C@H]2CC[C@@H](C(C)C)CC2)nc1C', '0%');

Returns the measured inhibition at 0.0078125 ppm for the input compound. Input: CCN(C)/C=N/c1cc(Br)c(OC(C)c2cc(F)cc(F)c2)nc1C (stereo not shown) 0%

---

# Tested on: Blumeria graminis f. sp. tritici (Erysiphe graminis f. sp. tritici)
# assayRemarks: Blumeria graminis f. sp. tritici / wheat / leaf disc preventative (powdery mildew on wheat)
# Type: in vivo
# conditionDetails: foliar, compared to untreated control leaf disks, read-out: disease control
Each entry below lists one item and its recorded pest or weed control at 200 ppm value.

Some compounds with known pest or weed control at 200 ppm results, for comparison:
INSERT INTO results (compound, resultvalue) VALUES
  ('CCN(C)/C=N/c1cc(Br)c(OCc2ccc(Cc3ccccc3)cc2)nc1C', '≥ 50%'),
  ('C=CCCCOc1nc(C)c(/N=C/N(C)CC)cc1Br', '≥ 50%'),
  ('CCN(C)/C=N/c1cc(Br)c(OC2CCNCC2)nc1C', '≥ 50%');

Which pest or weed control at 200 ppm value is on record for C=CCC(CC=C)Oc1nc(C)c(/N=C/N(C)CC)cc1Br ? ≥ 50%

CCN(C)/C=N/c1cc(Br)c(OC(C)c2ccncc2)nc1C (centres unmarked) , same question. ≥ 50%

---

Each entry below carries its reported pest or weed control at 200 ppm.
# Tested on: Puccinia recondita f. sp. tritici
# assayRemarks: Puccinia recondita f. sp. tritici / wheat / leaf disc preventative (brown rust)
# Assay type: in vivo
# conditionDetails: foliar, compared to untreated control leaf disks, read-out: disease control

INSERT INTO assay_data (molecule, measuredmetric, resultvalue) VALUES
  ('CCN(C)/C=N/c1cc(Br)c(OC2CCC(=O)C=C2C)nc1C (centres unmarked) [Q.282]', 'pest or weed control at 200 ppm', '≥ 50%'),
  ('COc1ccccc1COc1ccc(/N=C/N(C)C(C)C)c(C)n1 [Q.366]', 'pest or weed control at 200 ppm', '≥ 50%');

Can you share its pest or weed control at 200 ppm? I mean this molecule: C#Cc1cc(/N=C/N(C)CC)c(C)nc1OC(C)c1cc(F)cc(F)c1 (centres unmarked) [Q.229] ≥ 50%

Moving on to CCN(C)/C=N/c1cc(Br)c(OCc2cccc(F)c2C)nc1C [Q.322] ≥ 50%

Input CCN(C)/C=N/c1cc(I)c(OCc2ccccc2C)nc1C [Q.386] ≥ 50%

---

pest or weed control at 200 ppm for assorted compounds
# Tested on: Puccinia recondita f. sp. tritici
# assayRemarks: Puccinia recondita f. sp. tritici / wheat / leaf disc preventative (brown rust)
# Format: in vivo
# conditionDetails: foliar, compared to untreated control leaf disks, read-out: disease control

The examples below pair each entry with its known result.
INSERT INTO results (compound, targetdesc, measuredmetric, resultvalue) VALUES
  ('CCN(C)/C=N/c1cc(Br)c(OCc2c(C)cccc2C)nc1C', 'Puccinia recondita f. sp. tritici', 'pest or weed control at 200 ppm', '≥ 50%'),
  ('CCN(C)/C=N/c1cc(Br)c(OC(C)Cc2ccccc2C)nc1C (stereo not drawn)', 'Puccinia recondita f. sp. tritici', 'pest or weed control at 200 ppm', '≥ 50%'),
  ('CCN(C)/C=N/c1cc(Br)c(OC2CCC(=O)CC2C)nc1C (single isomer, unassigned)', 'Puccinia recondita f. sp. tritici', 'pest or weed control at 200 ppm', '≥ 50%'),
  ('CCN(C)/C=N/c1cc(Br)c(OCc2snc(-c3ccc(F)cc3)c2Cl)nc1C', 'Puccinia recondita f. sp. tritici', 'pest or weed control at 200 ppm', '≥ 50%'),
  ('CCN(C)/C=N/c1cc(Br)c(OC2Cc3ccc(C#N)cc3C2)nc1C (stereo not drawn)', 'Puccinia recondita f. sp. tritici', 'pest or weed control at 200 ppm', '≥ 50%'),
  ('CCN(C)/C=N/c1cc(Br)c(OCc2cccc(N)c2)nc1C', 'Puccinia recondita f. sp. tritici', 'pest or weed control at 200 ppm', '≥ 50%');

Fill blank: measured pest or weed control at 200 ppm of the compound CCN(C)/C=N/c1cc(Br)c(OCc2cc(-c3ccccc3)ns2)nc1C is ____. ≥ 50%

Please give the result for CCN(C)/C=N/c1cc(Br)c(OC(C)(C)c2cc(-c3ccccc3)no2)nc1C too. ≥ 50%

Moving on to CCc1nc(OCc2ccccc2C)c(Br)cc1/N=C/N(C)CC ≥ 50%
